# Study system: Neuronal acetylcholine receptor; alpha4/beta2 (Homo sapiens, UniProt P17787+P43681)
# Assay explanation: Percent inhibition against 10 uM nicotine binding to human Nicotinic acetylcholine receptor alpha4-beta2 expressed in Xenopus oocytes at 10 uM
# Assay type: functional, cell-based
# Measurement setup: Oocyte
The label depends only on inhibition: Condition met if it is at least 80%, Condition not met if it is smaller.

Ask: Can CC(C)c1nc2cc3c(cc2o1)C1CNCC3C1 (stereo not drawn) be said to have inhibition at or above 80%?
Result: Condition not met

Ask: Can c1ccc(-c2nc3cc4c(cc3[nH]2)C2CNCC4C2)cc1 (stereo not drawn) be said to have inhibition at or above 80%?
Result: Condition not met

Ask: Can CCCCn1cnc2cc3c(cc21)C1CNCC3C1 (stereo not drawn) be said to have inhibition at or above 80%?
Result: Condition not met

###

# Study system: Neuronal acetylcholine receptor; alpha4/beta2 (Homo sapiens, UniProt P17787+P43681)
# Assay explanation: Percent inhibition against 10 uM nicotine binding to human Nicotinic acetylcholine receptor alpha4-beta2 expressed in Xenopus oocytes at 10 uM
# Assay type: functional, cell-based
# Measurement setup: Oocyte
The label depends only on inhibition: 1.0 if it is at least 80%, 0.0 if it is smaller.

{"Molecule": "Cc1ccnc2cc3c(cc12)C1CNCC3C1 (stereo not given)", "Class": 0.0}
{"Molecule": "c1ccc(-n2cnc3cc4c(cc32)C2CNCC4C2)cc1 (stereo not given)", "Class": 1.0}
{"Molecule": "FC(F)(F)c1cccc2c1C1CNCC2C1 (stereo not given)", "Class": 0.0}
{"Molecule": "Cc1nc2cc3c(cc2n1-c1ccccc1)C1CNCC3C1 (stereo not given)", "Class": 0.0}

Now for a further molecule.
Ask: Can CCCn1c(C)nc2cc3c(cc21)C1CNCC3C1 (stereo not given) be said to have inhibition at or above 80%?
Result: 1.0

###

# Study system: Neuronal acetylcholine receptor; alpha4/beta2 (Homo sapiens, UniProt P17787+P43681)
# Assay explanation: Percent inhibition against 10 uM nicotine binding to human Nicotinic acetylcholine receptor alpha4-beta2 expressed in Xenopus oocytes at 10 uM
# Format: functional, cell-based
# Measurement setup: Oocyte
Readout kind: inhibition

Reference set, count: 4
{"Compound": "CCc1cnc2cc3c(cc2c1)C1CNCC3C1 (stereo not given)", "inhibition": "82%"}
{"Compound": "Clc1cc2c(cc1Cl)C1CNCC2C1", "inhibition": "81%"}
{"Compound": "CC(C)Cn1cnc2cc3c(cc21)C1CNCC3C1 (stereo not given)", "inhibition": "36%"}
{"Compound": "Cc1ccc2cc3c(cc2n1)C1CNCC3C1 (stereo not given)", "inhibition": "140%"}

Kindly consider the entry below.
inhibition recorded for this compound, Cc1nc2cc3c(cc2n1C)C1CNCC3C1 (stereo not given) , is 139%
